Molecular target: recombinant human 17β-HSD2 (Homo sapiens, UniProt P37059)
Construct: made in house; host or cells: Sd9 (Sf9) insect cells, baculovirus (Bac to Bac Expression System)
Sequence (P37059 1-387): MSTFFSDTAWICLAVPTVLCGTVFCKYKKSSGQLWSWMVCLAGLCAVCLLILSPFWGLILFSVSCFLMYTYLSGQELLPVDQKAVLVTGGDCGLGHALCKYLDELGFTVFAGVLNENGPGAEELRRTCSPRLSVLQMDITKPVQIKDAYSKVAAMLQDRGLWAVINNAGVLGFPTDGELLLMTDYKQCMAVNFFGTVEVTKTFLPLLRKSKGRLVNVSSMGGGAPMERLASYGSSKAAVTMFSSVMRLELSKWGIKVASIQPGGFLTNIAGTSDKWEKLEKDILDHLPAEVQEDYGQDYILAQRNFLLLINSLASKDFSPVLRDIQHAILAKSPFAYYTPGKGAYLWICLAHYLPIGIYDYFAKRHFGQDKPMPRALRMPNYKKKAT
Assay: Inhibition of recombinant human 17β-HSD2
Format: biochemical
Settings: inhibitor 1 μM; 50 nM estradiol, 1 mM NADH, 30 min RT

{"compound": "CCN(CC)C(=O)CC[C@@H]1C/C(=N\\O)[C@@]2(C)CCC3c4ccc(F)cc4CCC3C12 (stereo partly shown)", "target": "recombinant human 17β-HSD2 (Homo sapiens, UniProt P37059)", "inhibition at 1 µM, %": 6}
{"compound": "C[C@]12CCC3c4ccccc4CCC3C1[C@H](CCC(=O)Nc1cc3c([nH]c1=O)CCCC3)C/C2=N\\O (stereo partly shown)", "target": "recombinant human 17β-HSD2 (Homo sapiens, UniProt P37059)", "inhibition at 1 µM, %": 0}
{"compound": "Cc1ccc(NC(=O)CC[C@@H]2C/C(=N\\O)[C@@]3(C)CCC4c5ccc(F)cc5CCC4C23)nn1 (stereo partly shown)", "target": "recombinant human 17β-HSD2 (Homo sapiens, UniProt P37059)", "inhibition at 1 µM, %": 9}
{"compound": "CN(C)C(=O)CC[C@@H]1C/C(=N\\O)[C@@]2(C)CCC3c4cccc(F)c4CCC3C12 (stereo partly shown)", "target": "recombinant human 17β-HSD2 (Homo sapiens, UniProt P37059)", "inhibition at 1 µM, %": 2}
{"compound": "CN1CCN(c2ccc(NC(=O)CC[C@@H]3C/C(=N\\O)[C@@]4(C)CCC5c6ccccc6CCC5C34)nc2)CC1 (stereo partly shown)", "target": "recombinant human 17β-HSD2 (Homo sapiens, UniProt P37059)", "inhibition at 1 µM, %": 6}
{"compound": "C[C@]12CCC3c4cccc(F)c4CCC3C1[C@H](CCC(=O)NC1CCOCC1)C/C2=N\\O (stereo partly shown)", "target": "recombinant human 17β-HSD2 (Homo sapiens, UniProt P37059)", "inhibition at 1 µM, %": 6}
{"compound": "C[C@]12CCC3c4ccccc4CCC3C1[C@H](CCC(=O)Nc1ccc(N3CCOCC3)cn1)C/C2=N\\O (stereo partly shown)", "target": "recombinant human 17β-HSD2 (Homo sapiens, UniProt P37059)", "inhibition at 1 µM, %": -6}

----------
Reported inhibition at 1 µM is given for each of the following compounds.
Target: recombinant human 17β-HSD2 (Homo sapiens, UniProt P37059)
Construct: made in house; host or cells: Sd9 (Sf9) insect cells, baculovirus (Bac to Bac Expression System)
Sequence (P37059 1-387): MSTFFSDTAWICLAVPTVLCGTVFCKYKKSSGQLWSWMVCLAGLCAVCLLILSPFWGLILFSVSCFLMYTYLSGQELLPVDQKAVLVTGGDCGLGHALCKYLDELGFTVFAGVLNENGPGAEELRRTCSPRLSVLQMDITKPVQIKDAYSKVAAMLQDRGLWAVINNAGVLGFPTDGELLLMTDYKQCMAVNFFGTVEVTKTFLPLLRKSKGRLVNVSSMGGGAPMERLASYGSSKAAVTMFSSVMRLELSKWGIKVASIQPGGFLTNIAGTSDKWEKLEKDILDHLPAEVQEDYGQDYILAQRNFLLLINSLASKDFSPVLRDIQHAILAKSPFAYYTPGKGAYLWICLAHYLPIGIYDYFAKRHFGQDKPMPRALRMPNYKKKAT
Assay: Inhibition of recombinant human 17β-HSD2
Format: biochemical
Settings: inhibitor 1 μM; 50 nM estradiol, 1 mM NADH, 30 min RT
readout.kind: inhibition at 1 µM (%)

{"compound": "C[C@]12CCC3c4ccc(F)cc4CCC3C1[C@H](CCC(=O)Nc1ncccc1F)C/C2=N\\O (stereo partly shown) [Compound 150a]", "meas.value": 0}
{"compound": "Cc1cc(NC(=O)CC[C@@H]2C/C(=N\\O)[C@@]3(C)CCC4c5ccc(F)cc5CCC4C23)no1 (stereo partly shown)", "meas.value": -3}
{"compound": "C[C@]12CCC3c4cccc(F)c4CCC3C1[C@H](CCC(=O)N1CCC3(CCOCC3)C1)C/C2=N\\O (stereo partly shown)", "meas.value": 6}
{"compound": "COc1ccnc(NC(=O)CC[C@@H]2C/C(=N\\O)[C@@]3(C)CCC4c5cccc(F)c5CCC4C23)c1 (stereo partly shown)", "meas.value": 6}
{"compound": "C[C@]12CCC3c4ccccc4CCC3C1[C@H](CCC(=O)Nc1cccc(F)n1)C/C2=N\\O (stereo partly shown)", "meas.value": 9}
{"compound": "C[C@]12CCC3c4ccccc4CCC3C1[C@H](CCC(=O)Nc1ccc(C#N)cn1)C/C2=N\\O (stereo partly shown)", "meas.value": -2}
{"compound": "Cc1cc(NC(=O)CC[C@@H]2C/C(=N\\O)[C@@]3(C)CCC4c5cccc(F)c5CCC4C23)no1 (stereo partly shown)", "meas.value": 9}

----------
Target: recombinant human 17β-HSD1 (Homo sapiens, UniProt P14061)
Construct: made in house; host or cells: Sd9 (Sf9) insect cells, baculovirus (Bac to Bac Expression System)
Sequence (P14061 1-328): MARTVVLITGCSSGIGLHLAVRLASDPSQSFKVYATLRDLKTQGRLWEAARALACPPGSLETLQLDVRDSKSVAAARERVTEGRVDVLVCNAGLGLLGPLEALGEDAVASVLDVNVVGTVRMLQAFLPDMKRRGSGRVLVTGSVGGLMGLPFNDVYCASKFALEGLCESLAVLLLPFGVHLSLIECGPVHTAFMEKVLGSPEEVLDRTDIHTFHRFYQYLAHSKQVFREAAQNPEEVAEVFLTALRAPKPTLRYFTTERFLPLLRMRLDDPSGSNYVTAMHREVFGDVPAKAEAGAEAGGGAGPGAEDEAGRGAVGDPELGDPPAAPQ
Test: Inhibition of recombinant human 17β-HSD1
Assay type: biochemical
Conditions: inhibitor 100 nM; 30 nM estrone, 1 mM NADPH, 30 min RT
The threshold is inclusive: inhibition at 0.1 µM of exactly 60% counts as label 1; values below receive label 0.

{"molecule": "Cc1ccnc(NC(=O)CC[C@@H]2C/C(=N\\O)[C@@]3(C)CCC4c5cccc(F)c5CCC4C23)c1 (some centres unmarked) [Compound 130]", "class": "label 1"}
{"molecule": "C[C@]12CCC3c4ccc(Cl)cc4CCC3C1[C@H](CCC(=O)N1CCC3(CCOCC3)C1)C/C2=N\\O (some centres unmarked) [Compound 48]", "class": "label 0"}
{"molecule": "CN1CCN(c2ccc(NC(=O)CC[C@@H]3C/C(=N\\O)[C@@]4(C)CCC5c6cccc(F)c6CCC5C34)nc2)CC1 (some centres unmarked) [Compound 116]", "class": "label 1"}
{"molecule": "Cc1ccnc(NC(=O)CC[C@@H]2C/C(=N\\O)[C@@]3(C)CCC4c5ccc(Cl)cc5CCC4C23)c1 (some centres unmarked) [Compound 70]", "class": "label 1"}
{"molecule": "Cc1cnc(NC(=O)CC[C@@H]2C/C(=N\\O)[C@@]3(C)CCC4c5ccccc5CCC4C23)o1 (some centres unmarked) [Compound 108]", "class": "label 0"}
{"molecule": "Cc1ccc(NC(=O)CC[C@@H]2C/C(=N\\O)[C@@]3(C)CCC4c5cccc(F)c5CCC4C23)nn1 (some centres unmarked) [Compound 16]", "class": "label 1"}
{"molecule": "C[C@]12CCC3c4ccc(Cl)cc4CCC3C1[C@H](CCC(=O)Nc1ccc(C#N)cn1)C/C2=N\\O (some centres unmarked) [Compound 72]", "class": "label 0"}
{"molecule": "CN(C)C(=O)c1ccc(NC(=O)CC[C@@H]2C/C(=N\\O)[C@@]3(C)CCC4c5ccc(Cl)cc5CCC4C23)nc1 (some centres unmarked) [Compound 172]", "class": "label 0"}
{"molecule": "COc1ccc(NC(=O)CC[C@@H]2C/C(=N\\O)[C@@]3(C)CCC4c5ccc(Cl)cc5CCC4C23)nn1 (some centres unmarked) [Compound 50]", "class": "label 0"}
{"molecule": "C[C@]12CCC3c4ccc(Cl)cc4CCC3C1[C@H](CCC(=O)Nc1cc3c([nH]c1=O)CCCC3)C/C2=N\\O (some centres unmarked) [Compound 174]", "class": "label 1"}
{"molecule": "CN(C)C(=O)c1ccc(NC(=O)CC[C@@H]2C/C(=N\\O)[C@@]3(C)CCC4c5cccc(F)c5CCC4C23)nc1 (some centres unmarked) [Compound 176]", "class": "label 1"}
{"molecule": "COc1ccc(NC(=O)CC[C@@H]2C/C(=N\\O)[C@@]3(C)CCC4c5ccccc5CCC4C23)nc1 (some centres unmarked) [Compound 84]", "class": "label 1"}
{"molecule": "C[C@]12CCC3c4ccc(F)cc4CCC3C1[C@H](CCC(=O)Nc1ncc(F)cc1F)C/C2=N\\O (some centres unmarked) [Compound 152]", "class": "label 0"}
{"molecule": "C[C@]12CCC3c4ccc(F)cc4CCC3C1[C@H](CCC(=O)Nc1ncccc1F)C/C2=N/O (some centres unmarked) [Compound 150b]", "class": "label 0"}
{"molecule": "C[C@]12CCC3c4ccc(F)cc4CCC3C1[C@H](CCC(=O)Nc1ccc(F)cn1)C/C2=N\\O (some centres unmarked) [Compound 26]", "class": "label 0"}
{"molecule": "C[C@]12CCC3c4cccc(F)c4CCC3C1[C@H](CCC(=O)NC1CCOCC1)C/C2=N\\O (some centres unmarked) [Compound 122]", "class": "label 1"}
{"molecule": "C[C@]12CCC3c4ccc(Cl)cc4CCC3C1[C@H](CCC(=O)Nc1cnccn1)C/C2=N\\O (some centres unmarked) [Compound 74]", "class": "label 0"}
{"molecule": "Cc1ccnc(NC(=O)CC[C@@H]2C/C(=N\\O)[C@@]3(C)CCC4c5ccccc5CCC4C23)c1 (some centres unmarked) [Compound 88]", "class": "label 1"}
{"molecule": "C[C@]12CCC3c4ccc(F)cc4CCC3C1[C@H](CCC(=O)Nc1cccnn1)C/C2=N\\O (some centres unmarked) [Compound 34]", "class": "label 0"}
{"molecule": "COc1ccnc(NC(=O)CC[C@@H]2C/C(=N\\O)[C@@]3(C)CCC4c5ccccc5CCC4C23)c1 (some centres unmarked) [Compound 106]", "class": "label 1"}
{"molecule": "C[C@]12CCC3c4ccccc4CCC3C1[C@H](CCC(=O)Nc1cc3c([nH]c1=O)CCCC3)C/C2=N\\O (some centres unmarked) [Compound 94]", "class": "label 1"}
{"molecule": "C[C@]12CCC3c4ccccc4CCC3C1[C@H](CCC(=O)Nc1ncccc1O)C/C2=N\\O (some centres unmarked) [Compound 102]", "class": "label 0"}
{"molecule": "C[C@]12CCC3c4cccc(F)c4CCC3C1[C@H](CCC(=O)Nc1ncc(F)cc1F)C/C2=N\\O (some centres unmarked) [Compound 146]", "class": "label 1"}
{"molecule": "COc1ccc(NC(=O)CC[C@@H]2C/C(=N\\O)[C@@]3(C)CCC4c5ccc(F)cc5CCC4C23)nc1 (some centres unmarked) [Compound 28]", "class": "label 1"}
{"molecule": "C[C@]12CCC3c4cccc(F)c4CCC3C1[C@H](CCC(=O)Nc1cc(F)ccn1)C/C2=N\\O (some centres unmarked) [Compound 140]", "class": "label 1"}
{"molecule": "COc1ccnc(NC(=O)CC[C@@H]2C/C(=N\\O)[C@@]3(C)CCC4c5ccc(Cl)cc5CCC4C23)c1 (some centres unmarked) [Compound 56]", "class": "label 1"}
{"molecule": "CN(C(=O)CC[C@@H]1C/C(=N\\O)[C@@]2(C)CCC3c4cccc(F)c4CCC3C12)C1COC1 (some centres unmarked) [Compound 12]", "class": "label 1"}
{"molecule": "CN(C(=O)CC[C@@H]1C/C(=N\\O)[C@@]2(C)CCC3c4ccccc4CCC3C12)C1CCOCC1 (some centres unmarked) [Compound 80]", "class": "label 0"}
